Catalogue of compounds with associated normalized growth
Test: chemical genetic growth profiling, strain panel (AID 1159580);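 further: tested at 20 µM; growth read once vehicle control cultures reached saturation at 30 °C; 1 = growth at the plate median or of vehicle wells; lower values mean less growth of the strain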
Details: S. cerevisiae deletion strains, growth OD, locus YER123W, strain YCK3, stronger effect = lower value
Out of some 5,500 compounds screened, about 2,000 (36%) were called active. Not shown: some 18% with an inconclusive outcome. The list shows a part of the results.
Just the number, please, no unit attached.

Take a look at these entries with their results.
- COMPOUND: "Cc1ccc(S(=O)(=O)n2c(Sc3ccc([N+](=O)[O-])cc3[N+](=O)[O-])nc3cc(C)ccc32)cc1"
  normalized growth: 0.92
- COMPOUND: "O=C(NCC(c1ccccc1)c1c[nH]c2ccccc12)c1ccc(C(F)(F)F)cc1 (configuration not stated)"
  normalized growth: 0.971
- COMPOUND: "O=[N+]([O-])c1cnc(Sc2nnc(SCc3cccc(C(F)(F)F)c3)s2)s1"
  normalized growth: 0.111
- COMPOUND: "COc1cccc(NC(=S)NC2CC(C)CC(C)(C)C2)c1 (configuration not stated)"
  normalized growth: 0.962
- COMPOUND: "O=S(=O)(NC(=S)Nc1ccc(Cl)c(Cl)c1)c1ccccc1"
  normalized growth: 1

Request: State the recorded normalized growth for this entry: `O=C(Nc1ccccc1Sc1ccc([N+](=O)[O-])cc1[N+](=O)[O-])C(Cl)(Cl)Cl`
Response: 0.986

Request: State the recorded normalized growth for this entry: `Cc1nc(-c2cccnc2)nc(NCc2ccccc2)c1Cl`
Response: 0.784

Request: State the recorded normalized growth for this entry: `Cc1nc(-c2ccccn2)nc(N(C)Cc2ccccc2)c1Cl`
Response: 0.93

Request: State the recorded normalized growth for this entry: `COC(=O)c1cnn(-c2c(Cl)cccc2Cl)c1C=C(C#N)C#N`
Response: 0.954

Request: State the recorded normalized growth for this entry: `O=[N+]([O-])c1ccc(S(=O)(=O)c2ccccc2)nc1S(=O)(=O)c1ccccc1`
Response: 0.223

Request: State the recorded normalized growth for this entry: `Clc1ccc2c(c1)c1ccccc1n2CN1CCOCC1`
Response: 0.588

Request: State the recorded normalized growth for this entry: `Cc1oc(C(C)(C)C)cc1-c1cc(N)n(-c2ccc(I)cc2)n1`
Response: 0.946

Request: State the recorded normalized growth for this entry: `Cc1nc(-c2ccccn2)[nH]c(=O)c1Cc1c(Cl)cccc1Cl`
Response: 0.726

Request: State the recorded normalized growth for this entry: `Brc1ccc2[nH]c3c(c2c1)CCC3`
Response: 0.609

Request: State the recorded normalized growth for this entry: `O=C(NCCNc1ncc(C(F)(F)F)cc1Cl)C(F)(F)Sc1ccccc1`
Response: 0.828

Request: State the recorded normalized growth for this entry: CC(C)Cc1ccc(C(C)C(=O)Nc2nn(C)c3ccccc23)cc1 (configuration not stated)
Response: 0.922

Request: State the recorded normalized growth for this entry: `CCOC(=O)c1cc(CC)sc1NC(=O)c1ccc([N+](=O)[O-])o1`
Response: 0.34

Request: State the recorded normalized growth for this entry: `Fc1cccc(Cl)c1CSc1n[nH]c(-c2cc(C(F)(F)F)cc(C(F)(F)F)c2)n1`
Response: 0.918

Request: State the recorded normalized growth for this entry: `CCCc1nc(-c2ccccn2)[nH]c(=O)c1CC1CC1`
Response: 0.903

Request: State the recorded normalized growth for this entry: `Cc1nc(-c2ccccn2)nc(SCc2ccccc2)c1Cl`
Response: 0.747

Request: State the recorded normalized growth for this entry: `O=C(N/N=C\c1cc(Br)ccc1O)c1ccccc1Oc1ccccc1`
Response: 0.879

Request: State the recorded normalized growth for this entry: S=C(NNC(=S)NC1CC2C=CC1C2)Nc1ccc(Br)c(Cl)c1 (configuration not stated)
Response: 0.931

# credit: PubChem BioAssay AID1159580
